Collected normalized growth values appear next to each entry.
- procedure.summary: chemical genetic growth profiling, strain panel (AID 1159580);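 further: tested at 20 µM; growth read once vehicle control cultures reached saturation at 30 °C; 1 = growth at the plate median or of vehicle wells; lower values mean less growth of the strain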
- test.parameters: S. cerevisiae deletion strains, growth OD, locus YNL209W, strain ssb2, active compounds read low
Out of some 5,500 compounds screened, about 2,000 (36%) were called active. Roughly 18% stayed inconclusive and do not appear here. This is one part of the list.
Returns: the value as a bare number; no unit string appended.

Return reported normalized growth; argument: CCCCCCCCCCCCCCCCOP(=O)([O-])OCC[N+](C)(C)C
0.0625

// lookup normalized growth for C[C@@H]1O[C@@H](O[C@H]2[C@@H](Oc3cc(O)c4c(c3)O[C@H](c3ccc(O)cc3)CC4=O)O[C@H](CO)[C@@H](O)[C@@H]2O)[C@H](O)[C@H](O)[C@H]1O
0.971
